# System: normal heart
# measurement.description: In vivo phage homing to normal heart (phage per gram heart / phage per gram brain)
# Parameters: species or system mice
# test.parameters: Targeted tissue Normal Heart; individual phage, n=6 or 7 animals
property.name: Enrichment (relative enrichment compared with insertless phage)

Worked examples follow.
- substance: "HGRVRPH (phage displayed) [SEQ ID NO: 3]"
  observed.result: "~2 fold"
- substance: "CLHRGNSC (phage displayed) [SEQ ID NO: 9]"
  observed.result: "~2 fold"
- substance: "VVLVTSS (phage displayed) [SEQ ID NO: 4]"
  observed.result: "~2 fold"

Give Enrichment (relative enrichment compared with insertless phage) for the following substance: GGGVFWQ (phage displayed) [SEQ ID NO: 2]
~5 fold
